Consider the following molecules and their measured pEC50 readings.
subject_of_test: recombinant human ghrelin receptor (HEK293/GRLN) (Homo sapiens, UniProt Q92847)
Construct: expressed in transfected cells
Sequence (Q92847 whole entry): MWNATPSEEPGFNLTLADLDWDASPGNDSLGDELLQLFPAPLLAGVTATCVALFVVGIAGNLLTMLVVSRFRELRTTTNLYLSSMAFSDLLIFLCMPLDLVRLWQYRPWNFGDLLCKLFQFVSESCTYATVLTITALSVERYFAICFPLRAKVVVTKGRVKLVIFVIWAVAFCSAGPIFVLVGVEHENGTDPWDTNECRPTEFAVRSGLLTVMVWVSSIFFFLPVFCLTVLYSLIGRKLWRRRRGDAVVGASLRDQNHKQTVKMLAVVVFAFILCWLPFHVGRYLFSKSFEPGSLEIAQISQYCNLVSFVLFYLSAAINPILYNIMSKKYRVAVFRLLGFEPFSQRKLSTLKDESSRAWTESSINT
experiment_summary: Ghrelin inverse agonist potency (EC50) with IP-1 (IP-One HTRF) assay
Format: cell-based
study_conditions: IP-1 assay, HEK293/GRLN; read-out: Activity EC50 (ghrelin inverse agonist potency)
# pEC50 = -log10(concentration in molar units)

| molecule | subject_of_test | measured_result |
| --- | --- | --- |
| CC(NC(=O)Nc1ccc(S(=O)(=O)Cc2ccc3c(c2)CN(C)C3)cc1)c1ccc(F)cc1 (centres unmarked) | recombinant human ghrelin receptor (HEK293/GRLN) (Homo sapiens, UniProt Q92847) | 7.52 |

Alright, here's another molecule for you.
Noted for CC(NC(=O)Nc1ccc(S(=O)(=O)Cc2ccc3c(c2)CNC3)cc1)c1cc(F)cc(F)c1 (centres unmarked) : its pEC50 reads 8.41

====

subject_of_test: recombinant human ghrelin receptor (HEK293/GRLN) (Homo sapiens)
Construct: expressed in transfected cells
experiment_summary: Ghrelin inverse agonist potency (EC50) with IP-1 (IP-One HTRF) assay
Format: cell-based
study_conditions: inverse agonist potency, IP-1 assay; read-out: EC50 (Activity)
Friendly reminder: EC50 below 100 nM is 1 (yes), at or above is 0 (no).

| compound | subject_of_test | assigned_label |
| --- | --- | --- |
| CC(NC(=O)Nc1ccc(S(=O)(=O)Nc2ccc(CO)cc2)cc1)c1cccc2ccccc12 (centres unmarked) | recombinant human ghrelin receptor (HEK293/GRLN) (Homo sapiens) | 0 (no) |
| C[C@H](NC(=O)Nc1ccc(S(=O)(=O)Nc2cnc(N)nc2)cc1)c1cccc(Cl)c1Cl | recombinant human ghrelin receptor (HEK293/GRLN) (Homo sapiens) | 0 (no) |

We now examine a further compound.
Lab log: compare recorded EC50 with 100 nM; is it strictly lower for `C[C@H](NC(=O)Nc1ccc(S(=O)(=O)Cc2ccc3c(c2)CCNC3)cc1)c1ccccc1` ?
0 (no)

====

experiment_summary: Metabolic stability in mouse liver microsomes
Type: in vitro ADME
Description: Metabolic Stability Study The metabolic stability of compounds in human, dog, rat and mouse liver microsomes was performed according the experimental conditions reported below: • a) Prepare the following 5 stock solutions: • 1. […]
Outcome: Met for Metabolic Stability Study M = mouse of at least 40 µL/min/mg; Not met for anything lower.

Please review the entries below; each comes with its answer.
| compound | assigned_label |
| --- | --- |
| C[C@H](NC(=O)Nc1ccc(S(=O)(=O)Cc2ccc3c(c2)CCN(C)CC3)cc1)c1ccccc1 | Met |
| COc1cc(S(=O)(=O)Cc2ccc3c(c2)CNC3)ccc1NC(=O)NC(C)c1ccccc1.Cl (centres unmarked) | Met |
| COc1ccc([C@H](C)NC(=O)Nc2ccc(S(=O)(=O)Cc3ccc4c(c3)CCN(C(C)=O)C4)cc2)c(Cl)c1Cl | Met |
| CC(NC(=O)Nc1ccc(S(=O)(=O)Nc2ccc3c(c2)CNC3)cc1)c1ccccc1.Cl (centres unmarked) | Not met |
| COc1cc(S(=O)(=O)Cc2ccc3c(c2)CCNC3)ccc1NC(=O)N[C@@H](C)c1cccc(Cl)c1Cl | Not met |
| COc1cc(S(=O)(=O)Cc2ccc3c(c2)CCN(C)C3)ccc1NC(=O)NC(C)c1cccc(Cl)c1Cl (centres unmarked) | Met |
| CC(NC(=O)Nc1ccc(S(=O)(=O)Nc2ccc3c(c2)CN(C)C3)cc1)c1ccccc1 (centres unmarked) | Not met |
| CC(c1ccccc1)N(C)C(=O)Nc1ccc(S(=O)(=O)Cc2ccc3c(c2)CN(C)C3)cc1 (centres unmarked) | Met |
| CC(NC(=O)Nc1ccc(S(=O)(=O)Cc2ccc3c(c2)CNC3)cc1)c1ccccc1F (centres unmarked) | Not met |
| C[C@H](NC(=O)Nc1ccc(S(=O)(=O)Nc2ccc(CC(C)(C)N)cc2)cc1)c1cccc(Cl)c1Cl.Cl | Not met |

# check: Metabolic Stability Study M = mouse of CC(NC(=O)Nc1ccc(S(=O)(=O)Cc2ccc3c(c2)CN(C)C3)cc1)c1ccccc1 (centres unmarked) is greater than or equal to 40 µL/min/mg
Met

Can CC(NC(=O)Nc1ccc(S(=O)(=O)Cc2ccc3c(c2)CN(C)C3)cc1Cl)c1ccccc1 (centres unmarked) be said to have Metabolic Stability Study M = mouse at or above 40 µL/min/mg?
Met

Please tell me: is the compound COc1cc(NC(=O)N(O)C(C)c2ccccc2F)ccc1S(=O)(=O)Cc1ccc2c(c1)CN(C)C2 (centres unmarked) at or over 40 µL/min/mg in terms of Metabolic Stability Study M = mouse?
Met

====

Quick reference for pIC50 among some compounds
subject_of_test: GHSR-1a (HEK293/GHSR1a cell line) (Homo sapiens, UniProt Q92847)
Construct: expressed in transfected cells; host or cells: HEK293/GHSR1a cell line
Sequence (Q92847 whole entry): as above
experiment_summary: Ghrelin antagonist potency (IC50) with calcium FLIPR assay, ghrelin 10 nM
Type: cell-based
study_conditions: HEK293/GHSR1a, ghrelin 10 nM, read-out: Activity IC50 (ghrelin antagonist potency)
Please keep in mind that pIC50 is minus log10 of the molar concentration; only the number is needed.

Below, 6 compounds whose answers are already recorded.
| compound | measured_result |
| --- | --- |
| COc1cc(S(=O)(=O)Cc2ccc3c(c2)CCNC3)ccc1NC(=O)NC(C)c1ccccc1 (centres unmarked) [H1386] | 7.67 |
| CC(NC(=O)Nc1ccc(S(=O)(=O)Cc2ccc3c(c2)CNC3)cc1)c1ccc(F)cc1 (centres unmarked) [H1262] | 7.97 |
| O=C(Nc1ccc(S(=O)(=O)Cc2ccc3c(c2)CNC3)cc1)NC1COc2ccccc21 (centres unmarked) [H1330] | 6.83 |
| CC(NC(=O)Nc1ccc(S(=O)(=O)Cc2cc(Cl)c3c(c2)CNC3)cc1)c1ccccc1 (centres unmarked) [H1405] | 5.73 |
| COc1cc(S(=O)(=O)Cc2ccc3c(c2)CNC3)ccc1NC(=O)NC(C)c1ccccc1OC (centres unmarked) [H1393] | 8.04 |
| COc1cccc(F)c1C(C)NC(=O)Nc1ccc(S(=O)(=O)Cc2ccc3c(c2)CN(C)C3)cc1 (centres unmarked) [H1454] | 7.50 |

Moving on to another compound below.
The recorded pIC50 for CC(NC(=O)Nc1ccc(S(=O)(=O)Cc2ccc(CN3CCOCC3)cc2)cc1)c1ccccc1 (centres unmarked) [H1275] is 5.99

====

Recorded Metabolic Stability Study M = mouse by entry
experiment_summary: Metabolic stability in mouse liver microsomes
Assay type: in vitro ADME
Enter your answer as a number in µL/min/mg; do not include the unit.

Before answering, review these 3 worked examples.
| compound | Metabolic Stability Study M = mouse [µL/min/mg] |
| --- | --- |
| CC(C)(N)Cc1ccc(NS(=O)(=O)c2ccc(NC(=O)NCc3cccc(Cl)c3Cl)cc2)cc1 | 27.4 |
| COc1ccccc1C(C)NC(=O)Nc1ccc(S(=O)(=O)Cc2ccc3c(c2)CNC3)cc1F.Cl (centres unmarked) | 55.9 |
| COc1cc(S(=O)(=O)Cc2ccc3c(c2)CCNC3)ccc1NC(=O)NC(C)c1ccccc1 (centres unmarked) | 11 |

# Metabolic Stability Study M = mouse (compound: COc1cc(S(=O)(=O)Cc2ccc3c(c2)CC(C)N(C)C3)ccc1NC(=O)NC(C)c1cccc(Cl)c1Cl (centres unmarked) ) is 135.7

The recorded Metabolic Stability Study M = mouse for entry CC(NC(=O)Nc1ccc(S(=O)(=O)Cc2ccc3c(c2F)CNC3)cc1)c1c(F)cccc1F (centres unmarked) equals 358.6

The recorded Metabolic Stability Study M = mouse for `COc1ccc([C@H](C)NC(=O)Nc2ccc(S(=O)(=O)Nc3ccc4c(c3)CCN(C)C4)cc2)c(Cl)c1Cl` is 30.5

For reference, reported Metabolic Stability Study M = mouse for CC(NC(=O)Nc1ccc(S(=O)(=O)Cc2ccc3c(c2)CNC3)cc1)c1ccccc1.Cl (centres unmarked) stands at 21.1

====

subject_of_test: GHSR-1a (HEK293/GHSR1a cell line) (Homo sapiens)
Construct: expressed in transfected cells; host or cells: HEK293/GHSR1a cell line
experiment_summary: Ghrelin agonist potency (EC50) with calcium FLIPR assay
Assay type: cell-based
study_conditions: ghrelin agonist potency, read-out: Activity EC50/EMax
pEC50: −log10 of the molar value.
// reported pEC50 for each item listed

Some molecules with recorded pEC50:
| molecule | pEC50 |
| --- | --- |
| CC(NC(=O)Nc1ccc(S(=O)(=O)Cc2ccc3c(c2)CN(C)C3)cc1Cl)c1ccccc1 (stereo not shown) [H1456] | < 4.52 |
| COc1cc(S(=O)(=O)Cc2ccc3c(c2)C(F)CN(C)C3)ccc1NC(=O)N[C@H](C)c1cccc(Cl)c1Cl (stereo partly shown) [H1544] | < 4.52 |

# pEC50 (molecule: O=C(NCC1COc2ccccc2O1)Nc1ccc(S(=O)(=O)Cc2ccc3c(c2)CNC3)cc1 (stereo not shown) [H1483] ) is < 4.52

Per the records, this molecule ( CC(c1ccccc1F)N(O)C(=O)Nc1ccc(S(=O)(=O)Cc2ccc3c(c2)CN(C)C3)cc1 (stereo not shown) [H1491] ) has pEC50 equal to < 4.52
